Data origin, for the record: patent US11111238B2

Parameter: pIC50. Scope: all listed entries.
System: mitochondrial transcription (7S RNA) in HeLa cells
testDetails: Quantitative real time-PCR assay of inhibition of mitochondrial transcription (cellular qPCR assay IMT)
Assay type: cell-based
condition: Homo sapiens, 4 h compound incubation, qRT-PCR according to Example 5, activity class
pIC50: −log10 of the molar value.
propertyName: pIC50

[
  {
    "compound": "CNC(=O)C1CCCN(C(=O)C(C)Oc2ccc3c(-c4ccccc4Cl)cc(=O)oc3c2)C1 (stereo not drawn)",
    "observed": "> 8.00"
  },
  {
    "compound": "COC(=O)C[C@@H]1CCCN(C(=O)[C@@H](C)Oc2ccc3c(-c4ccc(F)cc4Cl)cc(=O)oc3c2)C1",
    "observed": "7.30 to 8.00"
  },
  {
    "compound": "COC(=O)C[C@H]1CCCN(C(=O)[C@@H](C)Oc2ccc3c(-c4ccc(F)cc4Cl)cc(=O)oc3c2)C1",
    "observed": "7.30 to 8.00"
  },
  {
    "compound": "C[C@@H](Oc1ccc2c(-c3ccc(F)cc3Cl)cc(=O)oc2c1)C(=O)N1CCC[C@H](C(=O)OC(C)(C)C)C1",
    "observed": "6.30 to 7.30"
  },
  {
    "compound": "CC(Oc1ccc2c(-c3ccccc3Cl)cc(=O)oc2c1)C(=O)N1CCCC(S(C)(=N)=O)C1 (stereo not drawn)",
    "observed": "> 8.00"
  },
  {
    "compound": "Cc1ccsc1-c1cc(=O)oc2cc(O[C@H](C)C(=O)N3CCC[C@H](C(=O)O)C3)ccc12",
    "observed": "> 8.00"
  },
  {
    "compound": "CC(Oc1ccc2c(-c3ccccc3Cl)cc(=O)oc2c1)C(=O)N1CCCC(C(=O)O)C1 (stereo not drawn)",
    "observed": "> 8.00"
  },
  {
    "compound": "COC(=O)[C@H]1CN(C(=O)[C@@H](C)Oc2ccc3c(-c4ccc(F)cc4Cl)cc(=O)oc3c2)CCN1",
    "observed": "7.30 to 8.00"
  },
  {
    "compound": "CC(Oc1ccc2c(-c3ccccc3Cl)cc(=O)oc2c1)C(=O)N1CCCCC1 (stereo not drawn)",
    "observed": "> 8.00"
  },
  {
    "compound": "CC(C)NC(=O)C(C)(C)Oc1ccc2c(-c3ccccc3Cl)cc(=O)oc2c1",
    "observed": "7.30 to 8.00"
  },
  {
    "compound": "Cc1cscc1-c1cc(=O)oc2cc(O[C@H](C)C(=O)N3CCC[C@H](C(=O)O)C3)ccc12",
    "observed": "> 8.00"
  },
  {
    "compound": "CCC(Oc1ccc2c(-c3ccccc3Cl)cc(=O)oc2c1)C(=O)N1CCC[C@H](C(=O)O)C1 (stereo partly drawn)",
    "observed": "> 8.00"
  },
  {
    "compound": "Cc1ccccc1-c1cc(=O)oc2cc(OC(C)C(=O)N(C)C)ccc12 (stereo not drawn)",
    "observed": "> 8.00"
  },
  {
    "compound": "C[C@@H](Oc1ccc2c(-c3ccc(F)cc3Cl)cc(=O)oc2c1)C(=O)N1CC[C@@H](CC(=O)O)C1",
    "observed": "7.30 to 8.00"
  },
  {
    "compound": "CCOC(=O)[C@H]1CCCN(C(=O)[C@@H](C)Oc2ccc3c(-c4ccc(F)cc4Cl)cc(=O)oc3c2)C1",
    "observed": "6.30 to 7.30"
  }
]

###

Tested on: mitochondrial transcription (7S RNA) in HeLa cells
testDetails: Quantitative real time-PCR assay of inhibition of mitochondrial transcription (cellular qPCR assay IMT)
Format: cell-based
condition: Homo sapiens, 4 h compound incubation, qRT-PCR according to Example 5, activity class
propertyName: IC50

[
  {
    "molecule": "CCCCCCCOC(=O)C[C@H]1CCCN(C(=O)[C@@H](C)Oc2ccc3c(-c4ccc(F)cc4Cl)cc(=O)oc3c2)C1 [Compound 126]",
    "propertyName": "IC50",
    "observed": "< 10 nM"
  },
  {
    "molecule": "Cc1ccccc1-c1cc(=O)oc2cc(OC(C)C(=O)N3CCC[C@@H](C(=O)N(C)C)C3)ccc12 (some centres unmarked) [Compound 78]",
    "propertyName": "IC50",
    "observed": "< 10 nM"
  },
  {
    "molecule": "C[C@@H](Oc1ccc2c(-c3ccc(F)cc3Cl)cc(=O)oc2c1)C(=O)N1CC[C@H](C(=O)O)C1 [Compound 159]",
    "propertyName": "IC50",
    "observed": "500 to 5000 nM"
  },
  {
    "molecule": "Cc1ccccc1-c1cc(=O)oc2cc(OC(C)C(=O)NC3CC3)ccc12 (centres unmarked) [Compound 25]",
    "propertyName": "IC50",
    "observed": "< 10 nM"
  },
  {
    "molecule": "Cc1ccccc1-c1cc(=O)oc2cc(OC(C)C(=O)N3CCCC(C(=O)O)C3)ccc12 (centres unmarked) [Compound 8]",
    "propertyName": "IC50",
    "observed": "< 10 nM"
  },
  {
    "molecule": "CC(Oc1ccc2c(-c3ccc(F)cc3Cl)cc(=O)oc2c1)C(=O)N1CCCC(S(N)(=O)=O)C1 (centres unmarked) [Compound 69]",
    "propertyName": "IC50",
    "observed": "< 10 nM"
  },
  {
    "molecule": "Cc1ccccc1-c1cc(=O)oc2cc(OC(C)C(=O)N3CCCC(S(N)(=O)=O)C3)ccc12 (centres unmarked) [Compound 12]",
    "propertyName": "IC50",
    "observed": "< 10 nM"
  },
  {
    "molecule": "C[C@@H](Oc1ccc2c(-c3ccc(F)cc3Cl)cc(=O)oc2c1)C(=O)N1CCN(C(=O)CCl)CC1 [Compound 166]",
    "propertyName": "IC50",
    "observed": "< 10 nM"
  },
  {
    "molecule": "Cc1ccccc1-c1cc(=O)oc2cc(OC(C)C(=O)N3CCCC(c4nn[nH]n4)C3)ccc12 (centres unmarked) [Compound 42]",
    "propertyName": "IC50",
    "observed": "10 to 50 nM"
  },
  {
    "molecule": "CC(Oc1ccc2c(-c3ccccc3Cl)cc(=O)oc2c1)C(=O)N(C)C (centres unmarked) [Compound 93]",
    "propertyName": "IC50",
    "observed": "< 10 nM"
  },
  {
    "molecule": "CC(C)OC(=O)C[C@H]1CCCN(C(=O)[C@@H](C)Oc2ccc3c(-c4ccc(F)cc4Cl)cc(=O)oc3c2)C1 [Compound 123]",
    "propertyName": "IC50",
    "observed": "< 10 nM"
  },
  {
    "molecule": "CCC(=O)N1CCN(C(=O)[C@@H](C)Oc2ccc3c(-c4ccc(F)cc4Cl)cc(=O)oc3c2)CC1 [Compound 168]",
    "propertyName": "IC50",
    "observed": "< 10 nM"
  },
  {
    "molecule": "CC(C)OC(=O)C(C)Oc1ccc2c(-c3ccccc3Br)cc(=O)oc2c1 (centres unmarked) [Compound 92]",
    "propertyName": "IC50",
    "observed": "< 10 nM"
  },
  {
    "molecule": "C[C@@H](Oc1ccc2c(-c3ccc(F)cc3Cl)cc(=O)oc2c1)C(=O)N1CCN(C)C(C(=O)O)C1 (mixture of isomers) [Compound 161]",
    "propertyName": "IC50",
    "observed": "500 to 5000 nM"
  },
  {
    "molecule": "CCOC(=O)C(C)Oc1ccc2c(-c3ccccc3Br)cc(=O)oc2c1 (centres unmarked) [Compound 81]",
    "propertyName": "IC50",
    "observed": "10 to 50 nM"
  },
  {
    "molecule": "CC(C)NC(=O)C(C)Oc1ccc2c(-c3ccccc3Cl)cc(=O)oc2c1 (centres unmarked) [Compound 70]",
    "propertyName": "IC50",
    "observed": "< 10 nM"
  },
  {
    "molecule": "C[C@@H](Oc1ccc2c(-c3ccc(F)cc3Cl)cc(=O)oc2c1)C(=O)N1CCC[C@H](CC(=O)OC(C)(C)C)C1 [Compound 124]",
    "propertyName": "IC50",
    "observed": "< 10 nM"
  },
  {
    "molecule": "CC(C)(Oc1ccc2c(-c3ccccc3Cl)cc(=O)oc2c1)C(=O)N1CCC[C@H](C(=O)O)C1 [Compound 116]",
    "propertyName": "IC50",
    "observed": "500 to 5000 nM"
  },
  {
    "molecule": "CNC(=O)C1CCCN(C(=O)C(C)Oc2ccc3c(-c4ccccc4C)cc(=O)oc3c2)C1 (centres unmarked) [Compound 21]",
    "propertyName": "IC50",
    "observed": "< 10 nM"
  },
  {
    "molecule": "CC(Oc1ccc2c(-c3ccccc3Cl)cc(=O)oc2c1)C(=O)N1CCCC(C)(C(=O)O)C1 (centres unmarked) [Compound 54]",
    "propertyName": "IC50",
    "observed": "< 10 nM"
  },
  {
    "molecule": "C[C@@H](Oc1ccc2c(-c3ccc(F)cc3Cl)cc(=O)oc2c1)C(=O)Nc1ccc(C(=O)O)cc1 [Compound 141]",
    "propertyName": "IC50",
    "observed": "50 to 500 nM"
  },
  {
    "molecule": "C[C@@H](Oc1ccc2c(-c3ccc(F)cc3Cl)cc(=O)oc2c1)C(=O)N1CC[C@H](CC(=O)O)C1 [Compound 145]",
    "propertyName": "IC50",
    "observed": "< 10 nM"
  },
  {
    "molecule": "CCCCCCCOC(=O)[C@H]1CCCN(C(=O)[C@@H](C)Oc2ccc3c(-c4ccc(F)cc4Cl)cc(=O)oc3c2)C1 [Compound 120]",
    "propertyName": "IC50",
    "observed": "< 10 nM"
  },
  {
    "molecule": "CC(C)OC(=O)OCOC(=O)C[C@H]1CCCN(C(=O)[C@@H](C)Oc2ccc3c(-c4ccc(F)cc4Cl)cc(=O)oc3c2)C1 [Compound 127]",
    "propertyName": "IC50",
    "observed": "< 10 nM"
  },
  {
    "molecule": "CC(Oc1ccc2c(-c3ccccc3Cl)cc(=O)oc2c1)C(=O)N1CCCC(S(N)(=O)=O)C1 (centres unmarked) [Compound 24]",
    "propertyName": "IC50",
    "observed": "< 10 nM"
  },
  {
    "molecule": "CNC(=O)[C@H]1CCCN(C(=O)[C@@H](C)Oc2ccc3c(-c4ccc(F)cc4Cl)cc(=O)oc3c2)C1 [Compound 122]",
    "propertyName": "IC50",
    "observed": "< 10 nM"
  }
]
